# kinase still bound, per cent of control annotations
- experimental target: MARK2 (human)
- assay text: KINOMEscan competition binding
- assay conditions: compound 1.0 µM
reported metric: kinase still bound, per cent of control (%)

| molecule smiles | reported metric | result unit | result |
| --- | --- | --- | --- |
| Cc1cc(NC(=O)c2cccc(NC(=O)/C=C/CN(C)C)c2)ccc1Nc1nccc(-c2cccnc2)n1 | kinase still bound, per cent of control | % | 77 |
| CN(C)C/C=C/C(=O)Nc1cccc(C(=O)Nc2ccc(Nc3nccc(/C(C#N)=C4\Nc5ccccc5S4)n3)cc2)c1 | kinase still bound, per cent of control | % | 100 |
| CN(C)C/C=C/C(=O)Nc1cccc(C(=O)Nc2ccc(Nc3nccc(-c4cccnc4)n3)cc2)c1 | kinase still bound, per cent of control | % | 69 |
| CN(C)C/C=C/C(=O)Nc1cccc(C(=O)Nc2ccc(Nc3nccc(-c4c(-c5ccccc5)nn5ccccc45)n3)cc2)c1 | kinase still bound, per cent of control | % | 98 |

###

- experimental target: STK32A (human)
- assay text: KINOMEscan competition binding
- assay conditions: compound 1.0 µM
# kinase still bound, per cent of control annotations

| molecule smiles | experimental target | result unit | kinase still bound, per cent of control |
| --- | --- | --- | --- |
| Cc1cc(NC(=O)c2cccc(NC(=O)/C=C/CN(C)C)c2)ccc1Nc1nccc(-c2cccnc2)n1 | STK32A (human) | % | 78 |
| CN(C)C/C=C/C(=O)Nc1cccc(C(=O)Nc2ccc(Nc3nccc(-c4c(-c5ccccc5)nn5ccccc45)n3)cc2)c1 | STK32A (human) | % | 35 |
| CN(C)C/C=C/C(=O)Nc1cccc(C(=O)Nc2ccc(Nc3nccc(/C(C#N)=C4\Nc5ccccc5S4)n3)cc2)c1 | STK32A (human) | % | 100 |
| CN(C)C/C=C/C(=O)Nc1cccc(C(=O)Nc2ccc(Nc3nccc(-c4cccnc4)n3)cc2)c1 | STK32A (human) | % | 100 |

###

# kinase still bound, per cent of control annotations
- experimental target: STK38L (human)
- assay text: KINOMEscan competition binding
- assay conditions: compound 1.0 µM

| molecule smiles | kinase still bound, per cent of control / % |
| --- | --- |
| Cc1cc(NC(=O)c2cccc(NC(=O)/C=C/CN(C)C)c2)ccc1Nc1nccc(-c2cccnc2)n1 | 100 |
| CN(C)C/C=C/C(=O)Nc1cccc(C(=O)Nc2ccc(Nc3nccc(/C(C#N)=C4\Nc5ccccc5S4)n3)cc2)c1 | 100 |
| CN(C)C/C=C/C(=O)Nc1cccc(C(=O)Nc2ccc(Nc3nccc(-c4c(-c5ccccc5)nn5ccccc45)n3)cc2)c1 | 100 |
| CN(C)C/C=C/C(=O)Nc1cccc(C(=O)Nc2ccc(Nc3nccc(-c4cccnc4)n3)cc2)c1 | 99 |

###

- experimental target: CSNK1A1 (human) (UniProt P48729)
- Sequence (P48729 whole entry, looked up): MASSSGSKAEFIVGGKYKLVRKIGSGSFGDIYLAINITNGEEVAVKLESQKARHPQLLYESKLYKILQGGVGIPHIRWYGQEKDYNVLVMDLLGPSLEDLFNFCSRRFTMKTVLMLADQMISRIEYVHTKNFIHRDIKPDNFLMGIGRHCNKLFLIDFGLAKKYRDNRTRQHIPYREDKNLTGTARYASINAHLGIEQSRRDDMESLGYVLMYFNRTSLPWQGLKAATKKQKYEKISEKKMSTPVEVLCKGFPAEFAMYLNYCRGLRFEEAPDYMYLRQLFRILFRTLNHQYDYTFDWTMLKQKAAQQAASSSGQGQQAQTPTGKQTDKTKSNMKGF
- assay text: KINOMEscan competition binding
- assay conditions: compound 1.0 µM
reported metric: kinase still bound, per cent of control

| molecule smiles | experimental target | result |
| --- | --- | --- |
| Cc1cc(NC(=O)c2cccc(NC(=O)/C=C/CN(C)C)c2)ccc1Nc1nccc(-c2cccnc2)n1 | CSNK1A1 (human) (UniProt P48729) | 73% |
| CN(C)C/C=C/C(=O)Nc1cccc(C(=O)Nc2ccc(Nc3nccc(/C(C#N)=C4\Nc5ccccc5S4)n3)cc2)c1 | CSNK1A1 (human) (UniProt P48729) | 75% |
| CN(C)C/C=C/C(=O)Nc1cccc(C(=O)Nc2ccc(Nc3nccc(-c4c(-c5ccccc5)nn5ccccc45)n3)cc2)c1 | CSNK1A1 (human) (UniProt P48729) | 2% |
| CN(C)C/C=C/C(=O)Nc1cccc(C(=O)Nc2ccc(Nc3nccc(-c4cccnc4)n3)cc2)c1 | CSNK1A1 (human) (UniProt P48729) | 19% |

###

- experimental target: UniProt:Q13470
- Sequence (Q13470 whole entry, looked up): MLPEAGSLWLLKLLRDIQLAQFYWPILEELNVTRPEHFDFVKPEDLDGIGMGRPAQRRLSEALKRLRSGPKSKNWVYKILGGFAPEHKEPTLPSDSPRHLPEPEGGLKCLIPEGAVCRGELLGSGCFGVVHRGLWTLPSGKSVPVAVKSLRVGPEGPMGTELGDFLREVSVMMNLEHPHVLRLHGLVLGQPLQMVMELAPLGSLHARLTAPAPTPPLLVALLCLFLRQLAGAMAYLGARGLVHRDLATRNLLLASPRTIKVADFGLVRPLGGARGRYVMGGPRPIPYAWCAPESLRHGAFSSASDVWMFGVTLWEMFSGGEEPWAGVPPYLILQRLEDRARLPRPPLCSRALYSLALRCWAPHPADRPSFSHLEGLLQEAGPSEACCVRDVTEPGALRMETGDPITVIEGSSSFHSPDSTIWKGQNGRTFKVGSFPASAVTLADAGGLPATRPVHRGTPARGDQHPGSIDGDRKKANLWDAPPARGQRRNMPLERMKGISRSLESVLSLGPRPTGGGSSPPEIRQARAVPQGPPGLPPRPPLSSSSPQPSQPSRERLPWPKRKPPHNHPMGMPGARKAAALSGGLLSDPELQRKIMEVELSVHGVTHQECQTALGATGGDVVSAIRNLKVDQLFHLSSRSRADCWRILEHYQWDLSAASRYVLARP
- assay text: KINOMEscan competition binding
- assay conditions: compound 1.0 µM
# kinase still bound, per cent of control annotations

| molecule smiles | result unit | kinase still bound, per cent of control |
| --- | --- | --- |
| CN(C)C/C=C/C(=O)Nc1cccc(C(=O)Nc2ccc(Nc3nccc(/C(C#N)=C4\Nc5ccccc5S4)n3)cc2)c1 | % | 15 |
| CN(C)C/C=C/C(=O)Nc1cccc(C(=O)Nc2ccc(Nc3nccc(-c4c(-c5ccccc5)nn5ccccc45)n3)cc2)c1 | % | 100 |
| CN(C)C/C=C/C(=O)Nc1cccc(C(=O)Nc2ccc(Nc3nccc(-c4cccnc4)n3)cc2)c1 | % | 67 |
| Cc1cc(NC(=O)c2cccc(NC(=O)/C=C/CN(C)C)c2)ccc1Nc1nccc(-c2cccnc2)n1 | % | 60 |

###

# kinase still bound, per cent of control annotations
- experimental target: CDKL5 (human)
- assay text: KINOMEscan competition binding
- assay conditions: compound 1.0 µM

| molecule smiles | experimental target | result unit | kinase still bound, per cent of control |
| --- | --- | --- | --- |
| CN(C)C/C=C/C(=O)Nc1cccc(C(=O)Nc2ccc(Nc3nccc(-c4c(-c5ccccc5)nn5ccccc45)n3)cc2)c1 | CDKL5 (human) | % | 100 |
| Cc1cc(NC(=O)c2cccc(NC(=O)/C=C/CN(C)C)c2)ccc1Nc1nccc(-c2cccnc2)n1 | CDKL5 (human) | % | 100 |
| CN(C)C/C=C/C(=O)Nc1cccc(C(=O)Nc2ccc(Nc3nccc(-c4cccnc4)n3)cc2)c1 | CDKL5 (human) | % | 1.7 |
| CN(C)C/C=C/C(=O)Nc1cccc(C(=O)Nc2ccc(Nc3nccc(/C(C#N)=C4\Nc5ccccc5S4)n3)cc2)c1 | CDKL5 (human) | % | 21 |

###

# kinase still bound, per cent of control annotations
- experimental target: PRKG2 (human) (UniProt Q13237)
- Sequence (Q13237 whole entry, looked up): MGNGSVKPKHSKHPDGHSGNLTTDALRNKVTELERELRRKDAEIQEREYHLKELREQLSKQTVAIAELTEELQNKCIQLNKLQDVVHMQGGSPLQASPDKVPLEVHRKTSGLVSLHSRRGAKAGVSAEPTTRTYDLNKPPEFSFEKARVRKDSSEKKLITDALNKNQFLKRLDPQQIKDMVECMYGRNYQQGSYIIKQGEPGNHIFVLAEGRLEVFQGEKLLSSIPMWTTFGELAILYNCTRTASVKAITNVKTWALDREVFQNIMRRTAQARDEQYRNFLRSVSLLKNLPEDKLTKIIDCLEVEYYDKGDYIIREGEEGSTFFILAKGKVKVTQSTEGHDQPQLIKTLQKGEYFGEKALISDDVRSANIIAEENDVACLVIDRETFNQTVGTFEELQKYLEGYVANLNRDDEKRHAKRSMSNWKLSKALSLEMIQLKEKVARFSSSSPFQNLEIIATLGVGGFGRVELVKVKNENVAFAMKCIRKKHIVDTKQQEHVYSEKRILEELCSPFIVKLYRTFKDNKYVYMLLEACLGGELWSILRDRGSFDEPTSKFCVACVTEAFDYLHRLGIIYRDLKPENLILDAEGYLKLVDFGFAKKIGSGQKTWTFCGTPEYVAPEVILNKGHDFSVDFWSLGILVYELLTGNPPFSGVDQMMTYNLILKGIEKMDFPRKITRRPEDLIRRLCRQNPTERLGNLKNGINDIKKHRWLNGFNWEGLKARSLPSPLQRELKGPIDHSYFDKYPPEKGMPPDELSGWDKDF
- assay text: KINOMEscan competition binding
- assay conditions: compound 1.0 µM

| molecule smiles | experimental target | kinase still bound, per cent of control [%] |
| --- | --- | --- |
| Cc1cc(NC(=O)c2cccc(NC(=O)/C=C/CN(C)C)c2)ccc1Nc1nccc(-c2cccnc2)n1 | PRKG2 (human) (UniProt Q13237) | 97 |
| CN(C)C/C=C/C(=O)Nc1cccc(C(=O)Nc2ccc(Nc3nccc(-c4cccnc4)n3)cc2)c1 | PRKG2 (human) (UniProt Q13237) | 82 |
| CN(C)C/C=C/C(=O)Nc1cccc(C(=O)Nc2ccc(Nc3nccc(/C(C#N)=C4\Nc5ccccc5S4)n3)cc2)c1 | PRKG2 (human) (UniProt Q13237) | 100 |
| CN(C)C/C=C/C(=O)Nc1cccc(C(=O)Nc2ccc(Nc3nccc(-c4c(-c5ccccc5)nn5ccccc45)n3)cc2)c1 | PRKG2 (human) (UniProt Q13237) | 83 |

###

- experimental target: JAK1 JH1 catalytic (human) (UniProt P23458)
- Sequence (P23458 whole entry, looked up): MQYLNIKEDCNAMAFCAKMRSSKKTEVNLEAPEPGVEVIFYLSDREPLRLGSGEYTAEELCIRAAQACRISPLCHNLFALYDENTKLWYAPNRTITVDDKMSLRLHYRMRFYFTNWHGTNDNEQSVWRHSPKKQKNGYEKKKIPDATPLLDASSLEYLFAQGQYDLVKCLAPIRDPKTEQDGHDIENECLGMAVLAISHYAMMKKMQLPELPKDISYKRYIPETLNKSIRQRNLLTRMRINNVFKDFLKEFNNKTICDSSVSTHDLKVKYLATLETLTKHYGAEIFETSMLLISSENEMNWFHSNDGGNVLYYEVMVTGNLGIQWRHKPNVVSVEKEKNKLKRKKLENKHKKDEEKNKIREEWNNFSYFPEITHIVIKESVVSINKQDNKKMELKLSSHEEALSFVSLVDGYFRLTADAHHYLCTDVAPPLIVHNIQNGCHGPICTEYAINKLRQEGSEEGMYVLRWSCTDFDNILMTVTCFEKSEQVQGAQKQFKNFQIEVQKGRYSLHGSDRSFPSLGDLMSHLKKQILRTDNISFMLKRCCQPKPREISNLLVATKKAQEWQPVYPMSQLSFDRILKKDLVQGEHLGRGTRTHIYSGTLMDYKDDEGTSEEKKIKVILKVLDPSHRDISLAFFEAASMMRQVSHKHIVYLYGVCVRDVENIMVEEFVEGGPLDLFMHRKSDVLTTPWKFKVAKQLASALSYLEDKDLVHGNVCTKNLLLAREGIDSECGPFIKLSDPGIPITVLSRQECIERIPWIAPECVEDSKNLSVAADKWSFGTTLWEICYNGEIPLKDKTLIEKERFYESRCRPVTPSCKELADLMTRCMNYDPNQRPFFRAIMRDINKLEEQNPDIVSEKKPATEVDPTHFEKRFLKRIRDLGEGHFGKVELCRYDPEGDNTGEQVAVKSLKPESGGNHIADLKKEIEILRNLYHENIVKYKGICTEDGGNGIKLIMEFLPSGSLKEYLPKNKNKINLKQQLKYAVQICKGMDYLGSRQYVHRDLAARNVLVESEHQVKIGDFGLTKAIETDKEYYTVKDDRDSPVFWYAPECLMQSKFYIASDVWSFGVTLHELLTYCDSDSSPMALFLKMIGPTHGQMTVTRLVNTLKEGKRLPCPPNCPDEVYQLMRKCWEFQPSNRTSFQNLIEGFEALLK
- assay text: KINOMEscan competition binding
- assay conditions: compound 1.0 µM

| molecule smiles | kinase still bound, per cent of control, % |
| --- | --- |
| CN(C)C/C=C/C(=O)Nc1cccc(C(=O)Nc2ccc(Nc3nccc(-c4c(-c5ccccc5)nn5ccccc45)n3)cc2)c1 | 89 |
| CN(C)C/C=C/C(=O)Nc1cccc(C(=O)Nc2ccc(Nc3nccc(/C(C#N)=C4\Nc5ccccc5S4)n3)cc2)c1 | 100 |
| Cc1cc(NC(=O)c2cccc(NC(=O)/C=C/CN(C)C)c2)ccc1Nc1nccc(-c2cccnc2)n1 | 98 |
| CN(C)C/C=C/C(=O)Nc1cccc(C(=O)Nc2ccc(Nc3nccc(-c4cccnc4)n3)cc2)c1 | 100 |

###

- experimental target: WEE1 (human) (UniProt P30291)
- Sequence (P30291 whole entry, looked up): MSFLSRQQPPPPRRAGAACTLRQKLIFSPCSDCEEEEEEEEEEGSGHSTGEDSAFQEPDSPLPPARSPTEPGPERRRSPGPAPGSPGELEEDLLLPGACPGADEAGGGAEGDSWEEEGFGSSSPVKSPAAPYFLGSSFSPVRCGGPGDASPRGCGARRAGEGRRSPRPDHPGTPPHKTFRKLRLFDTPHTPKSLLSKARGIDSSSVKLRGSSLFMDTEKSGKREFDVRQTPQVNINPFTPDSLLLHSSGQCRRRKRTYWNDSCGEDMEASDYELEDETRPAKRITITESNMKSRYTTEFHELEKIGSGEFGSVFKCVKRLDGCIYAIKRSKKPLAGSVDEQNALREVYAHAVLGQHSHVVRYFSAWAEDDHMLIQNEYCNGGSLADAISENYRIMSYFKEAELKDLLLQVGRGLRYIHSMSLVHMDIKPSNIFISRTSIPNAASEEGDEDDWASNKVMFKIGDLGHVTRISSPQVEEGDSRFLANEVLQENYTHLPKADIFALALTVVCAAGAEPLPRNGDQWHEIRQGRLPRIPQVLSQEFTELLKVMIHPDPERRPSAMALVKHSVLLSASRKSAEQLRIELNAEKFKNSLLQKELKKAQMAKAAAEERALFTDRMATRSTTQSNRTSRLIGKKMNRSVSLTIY
- assay text: KINOMEscan competition binding
- assay conditions: compound 1.0 µM
reported metric: kinase still bound, per cent of control (%)

| molecule smiles | experimental target | reported metric | result unit | result |
| --- | --- | --- | --- | --- |
| Cc1cc(NC(=O)c2cccc(NC(=O)/C=C/CN(C)C)c2)ccc1Nc1nccc(-c2cccnc2)n1 | WEE1 (human) (UniProt P30291) | kinase still bound, per cent of control | % | 100 |
| CN(C)C/C=C/C(=O)Nc1cccc(C(=O)Nc2ccc(Nc3nccc(-c4cccnc4)n3)cc2)c1 | WEE1 (human) (UniProt P30291) | kinase still bound, per cent of control | % | 84 |
| CN(C)C/C=C/C(=O)Nc1cccc(C(=O)Nc2ccc(Nc3nccc(-c4c(-c5ccccc5)nn5ccccc45)n3)cc2)c1 | WEE1 (human) (UniProt P30291) | kinase still bound, per cent of control | % | 100 |
| CN(C)C/C=C/C(=O)Nc1cccc(C(=O)Nc2ccc(Nc3nccc(/C(C#N)=C4\Nc5ccccc5S4)n3)cc2)c1 | WEE1 (human) (UniProt P30291) | kinase still bound, per cent of control | % | 100 |

###

# kinase still bound, per cent of control annotations
- experimental target: UniProt:P22694
- assay text: KINOMEscan competition binding
- assay conditions: compound 1.0 µM

| molecule smiles | kinase still bound, per cent of control (%) |
| --- | --- |
| CN(C)C/C=C/C(=O)Nc1cccc(C(=O)Nc2ccc(Nc3nccc(-c4cccnc4)n3)cc2)c1 | 100 |
| CN(C)C/C=C/C(=O)Nc1cccc(C(=O)Nc2ccc(Nc3nccc(/C(C#N)=C4\Nc5ccccc5S4)n3)cc2)c1 | 100 |
| Cc1cc(NC(=O)c2cccc(NC(=O)/C=C/CN(C)C)c2)ccc1Nc1nccc(-c2cccnc2)n1 | 76 |
| CN(C)C/C=C/C(=O)Nc1cccc(C(=O)Nc2ccc(Nc3nccc(-c4c(-c5ccccc5)nn5ccccc45)n3)cc2)c1 | 83 |
